Attribution: patent US12421257B2

Target: ai5γ group II intron
Assay: Radioanalytic self-splicing assay of SE RNA (Ki)
Conditions: 8 mM MgCl2, 100 mM KCl, pH 7.5, 30° C.
measured-quantity: pKi
Quick note: pKi means taking -log10 of the concentration in moles per liter.

Ask: Complete the entry with pKi for O=C(c1cc(O)c(O)c(O)c1)c1cc2cc(-c3ccc(C(F)(F)F)nc3)ccc2o1
Result: 5.41

Ask: For O=C(N/N=C/c1ccc(-c2ccc(Br)cc2)o1)c1cc(O)c(O)c(O)c1 , write its pKi.
Result: 5.77

Ask: State its pKi for this compound: O=C1/C(=C/c2cc(O)cc(O)c2)Oc2cc(O)cc(O)c21
Result: 3.60

====

Biological target: ai5γ group II intron
Assay: Radioanalytic self-splicing assay of SE RNA (Ki)
Conditions: 8 mM MgCl2, 100 mM KCl, pH 7.5, 30° C.
measured-quantity: Ki (µM)
# unit: µM | format: bare number

Ask: Recall and state the measured Ki for CN(C)CCNC(=O)c1ccc2oc(C(=O)c3cc(O)c(O)c(O)c3)cc2c1 .
Result: 0.62

Ask: Check the records and state Ki for O=C1/C(=C/c2ccc(B(O)O)cc2)Oc2cc(O)cc(O)c21
Result: 55

Ask: Identify measured Ki associated with CC(=O)c1ccc(-c2ccc3oc(C(=O)c4cc(O)c(O)c(O)c4)cc3c2)cc1
Result: 2.1

Ask: Supply Ki value. Item: O=C(c1cc(O)c(O)c(O)c1)c1cc2c(ccc3ccccc32)o1
Result: 0.15

Ask: Recall and state the measured Ki for O=C1/C(=C/c2ccc(O)c(O)c2)Oc2cc(O)cc(O)c21 .
Result: 156

Ask: Kindly indicate its recorded Ki. Item: Cc1ccncc1-c1ccc2oc(C(=O)c3cc(O)c(O)c(O)c3)cc2c1
Result: 5.3

Ask: Query Ki for CCN(CC)CCNC(=O)c1ccc2oc(C(=O)c3cc(O)c(O)c(O)c3)cc2c1
Result: 0.49

Ask: Please look at this compound and report its Ki: O=C(c1cc(O)c(O)c(O)c1)c1cc2cc(-c3ccc(CO)cc3)ccc2o1
Result: 1.3

====

Tested on: HEK-293T cells
Assay: Cytotoxicity in HEK-293T cells (Cell Titer Glo)
Format: cell-based, human
Settings: Homo sapiens, cytotoxicity, 24 hours with compound, read-out: IC50 HEK-293
Answer each item with its documented IC50.
Quick reminder: number only, in µg/mL, skip the unit.

Ask: Give a short answer stating reported IC50 for O=C1/C(=C/c2cc(O)c(O)c(O)c2)Oc2cc(O)ccc21 [APY-013] .
Result: 19

Ask: Identify the reported IC50 for the following entry. COc1cc(/C=N/NC(=O)c2cc(O)c(O)c(O)c2)cc(O)c1O [APY-038]
Result: 15.9

Ask: State its IC50: O=C(N/N=C/c1cc(F)c(O)c(F)c1)c1cc(O)c(O)c(O)c1 [APY-031]
Result: 47.8

Ask: Output IC50 of Br.CCN(CC)Cc1ccc(-c2ccc3oc(C(=O)c4cc(O)c(O)c(O)c4)cc3c2)cc1 [APY-090]
Result: 1.7

Ask: Give me measured IC50, please, for this compound: O=C(c1cc(O)c(O)c(O)c1)c1cc2cc(-c3ccc(CO)cc3)ccc2o1 [APY-084]
Result: 1.1

Ask: Given O=C(N/N=C/c1ccc2ccccc2c1)c1cc(O)c(O)c(O)c1 [NED-2135] , respond with its IC50.
Result: 2.4

Ask: Look up and state reported IC50 for O=C1/C(=C/c2cc(F)c(O)c(F)c2)Oc2cc(O)cc(O)c21 [APY-010]
Result: 0.55

Ask: Look up and report measured IC50 for this entry: O=C(N/N=C/c1ccc(-c2ccc(Br)cc2)o1)c1cc(O)c(O)c(O)c1 [NED-2038]
Result: 1.1

Ask: For the compound O=C(c1cc(O)c(O)c(O)c1)N1CCN(c2ccccc2)CC1 [NED-2015] , report IC50.
Result: 4.4

Ask: Provide IC50 value for the following compound: O=C(c1cc(O)c(O)c(O)c1)N1CCC(c2noc3cc(F)ccc23)CC1 [APY-088]
Result: 6.55

Ask: Supply recorded IC50 for O=C(N/N=C/c1c(OCc2ccccn2)ccc2ccccc12)c1cc(O)c(O)c(O)c1 [NED-2175] here.
Result: 14

Ask: Retrieve IC50 measured for O=C(c1cc(O)c(O)c(O)c1)N1CCC(c2ccccc2)CC1 [APY-087] and print it.
Result: 8.4

Ask: Report measured IC50; entry is O=C(c1cc(O)c(O)c(O)c1)c1cc2ccccc2o1 [APY-068]
Result: 1.3

Ask: Fill in IC50 for record CCCCNS(=O)(=O)c1ccc(-c2ccc(-c3nc(-c4cc(O)c(O)c(O)c4)cs3)cc2)cc1 [APY-093]
Result: 7.2

Ask: Dear colleague, please send me the reported IC50 for CS(=O)(=O)c1ccc(C(=O)c2cc3cc(-c4ccc(CO)cc4)ccc3o2)cc1 [APY-099] when you can.
Result: 8.2

Ask: Return the recorded IC50 value; entry: COc1cc(/C=N/NC(=O)c2cc(O)c(O)c(O)c2)cc(OC)c1O [APY-035]
Result: 39.3

Ask: Identify the reported IC50 for the following entry. COc1ccc(/C=N/NC(=O)c2cc(O)c(O)c(O)c2)cc1OC [APY-041]
Result: 49.5

Ask: Supply measured IC50 of CN1CCC(CNC(=O)c2ccc3oc(C(=O)c4cc(O)c(O)c(O)c4)cc3c2)CC1 [NED-2023] in your reply.
Result: 36

Ask: Dear colleague, please send me the reported IC50 for O=C(c1cc(O)c(O)c(O)c1)c1cc2c(ccc3ccccc32)o1 [APY-071] when you can.
Result: 6

Ask: Read the entry O=C(Nc1cc(O)c(O)c(O)c1)N1CCN(c2ccc(Cl)c(Cl)c2)CC1 [NED-2035] and write its reported IC50.
Result: 1.6

Ask: Hello, please tell me recorded IC50 for this one: O=C(N/N=C/c1ccc(O)cc1)c1cc(O)c(O)c(O)c1 [APY-032]
Result: 4.14

Ask: Give the measured IC50 for O=C(N/N=C/c1c(O)ccc2ccccc12)c1cc(O)c(O)c(O)c1 [NED-2037]
Result: 2.8

Ask: Indicate the recorded IC50 value for this compound: O=C(c1cc(O)c(O)c(O)c1)c1cc2cc(Cl)cc(Cl)c2o1 [APY-083]
Result: 0.5

Ask: Give the reported IC50 for this compound. Oc1cc(-c2nc3ccc(C(F)(F)F)cc3s2)cc(O)c1O [NED-2016]
Result: 1.5

Ask: Return value of IC50 for input O=C(CCc1ccc2ccccc2c1)c1cc(O)c(O)c(O)c1 [APY-076] , no commentary.
Result: 7

====

Give pKi for every item shown.
Biological target: ai5γ group II intron
Assay: Radioanalytic self-splicing assay of SE RNA (Ki)
Format: biochemical, Saccharomyces cerevisiae
Settings: 8 mM MgCl2, 100 mM KCl, pH 7.5, 30° C.
Description: Internally labeled SE RNA (2 nM) was incubated with various concentrations of inhibitor compound under near-physiological conditions (in 50 mM MOPS, pH 7.5, 8 mM MgCl2, 100 mM KCl) at 30° C. Aliquots at different time points were quenched and analyzed on 5% denaturing polyacrylamide gel as previously described (Daniels et al., 1996, Journal of molecular biology, 256:31-49). Data were fit to a single-exponential equation to determine the first order rate constants (kobs). […]
Bear in mind: pKi is minus log10 of a mol/L concentration; give just that figure.

Ask: Would you please give the reported pKi of C[C@H](NC(=O)c1cc(O)c(O)c(O)c1)c1cccc2ccccc12 with ai5γ group II intron?
Result: 4.49

Ask: Given COc1cc(/C=N/NC(=O)c2cc(O)c(O)c(O)c2)cc(O)c1O , report its pKi on ai5γ group II intron.
Result: 5.96

Ask: Write down measured pKi (ai5γ group II intron) for this molecule. Br.CCN(CC)Cc1ccc(-c2ccc3oc(C(=O)c4cc(O)c(O)c(O)c4)cc3c2)cc1 [APY-090, hydrobromide]
Result: 6.43

Ask: Give the observed pKi of O=C(c1cc(O)c(O)c(O)c1)c1cc2cc(F)ccc2o1 for ai5γ group II intron.
Result: 6.00

Ask: Provide pKi, recorded with ai5γ group II intron, of CCN(CC)C(=O)c1ccc(-c2ccc3oc(C(=O)c4cc(O)c(O)c(O)c4)cc3c2)cc1
Result: 5.35

Ask: Would you please give the reported pKi of O=C(N/N=C/c1ccccc1O)c1cc(O)c(O)c(O)c1 with ai5γ group II intron?
Result: 5.03

Ask: Fill: pKi (ai5γ group II intron) for this molecule COc1ccc(CNC(=O)c2cc(O)c(O)c(O)c2)cc1OC
Result: 4.36

Ask: Retrieve pKi on ai5γ group II intron; query O=C1/C(=C/c2cc(O)c(O)c(O)c2)Oc2cc(O)cc(O)c21 [Compound 1, reference compound]
Result: 5.68

Ask: Name the recorded pKi of COc1cccc(/C=N/NC(=O)c2cc(O)c(O)c(O)c2)c1O , assay system ai5γ group II intron.
Result: 5.10
